# methodSummary: Binding affinity at rat imidazoline receptor I-2
The label is label 1 for Ki below 7 nM and label 0 for Ki equal to or exceeding 7 nM.

| molecule | classification |
| --- | --- |
| COc1ccc2c3c([nH]c2c1)C=NCC3 [CGS-19281A] | label 0 |
| C1=NCCc2c1[nH]c1ccccc21 | label 0 |
| c1ccc2c3c([nH]c2c1)CCNC3 | label 1 |
| Brc1cccc2c3c([nH]c12)CNCC3 | label 1 |
| COc1ccc2c(c1)[nH]c1c(C)nccc12 | label 0 |
| Brc1ccc2c3c([nH]c2c1)C=NCC3 | label 0 |
| COc1ccc2c(c1)[nH]c1cnccc12 | label 0 |
| COc1cccc2[nH]c3c(c12)CCNC3 | label 0 |
| COc1cccc2[nH]c3c(c12)CCN=C3 | label 0 |
| COc1ccc2[nH]c3c(c2c1)CCNC3 | label 0 |
| Brc1cccc2[nH]c3c(c12)CCNC3 | label 1 |
